# Test system: ISC-enriched organoids
# measurement_notes: Primary screen, 384-well 2.5-D organoid differentiation (ENR+CD, 6 days, Target Selective Inhibitor Library, vs whole-plate median): ATP (CellTiter-Glo 3D, CTG)
# experimental_setup: Dose 10.00 uM; primary screen, FC vs plate median
endpoint: Dose.FC.CTG (log 2 fold change)
Answer format: numeric, log 2 fold change implied, no suffix.

Consider the following illustrative entries.
1) C[C@H](NC(=O)[C@@H](O)c1cc(F)cc(F)c1)C(=O)N[C@@H]1C(=O)N(C)c2ccccc2-c2ccccc21 = −0.259
2) Cc1cc(Nc2cc(CN3CCOCC3)c3nc(C)c(Cc4ccc(Cl)cc4F)n3n2)n[nH]1 = −0.831
3) CC[C@@H]1/C=C/C=C/C[C@H](C)[C@H](O)[C@](C)(O)C(=O)[C@H](C)[C@@H](O)[C@H](C)C(=O)[C@H](C)[C@@H](O)[C@H](C)/C=C/C(=O)O[C@H]2[C@@H](C)[C@@H](CC1)O[C@@]1(CC[C@@H](C)[C@@H](C[C@H](C)O)O1)[C@@H]2C = −1.244
4) Cn1cc(/C=C2\C(=O)Nc3cccnc32)c2ccccc21 = −0.113
5) C/C(=N\NC(=S)N1CCC1)c1ccccn1 = −1.907
6) O=C(Nc1ccccc1)N1CCN(c2nc(-c3ccccc3)ns2)CC1 = −0.145
7) O=C(NCCN1CCOCC1)c1ccc(Cl)cc1 [Moclobemide (Ro 111163)] = 0.042
8) CCCC(C)NC(=O)c1ccc(Cl)c(Cl)c1 (stereo not shown) = −0.058

Here is another compound to look at.
Could you share which Dose.FC.CTG value was measured for "Clc1ccc(N/N=C(\c2ccccc2)c2ccccn2)nc1" ?
−0.181

====

Consider the following compounds and their measured Z.CTG (standard z score) readings.
# Tested on: ISC-enriched organoids
# measurement_notes: Primary screen, 384-well 2.5-D organoid differentiation (ENR+CD, 6 days, Target Selective Inhibitor Library, vs whole-plate median): ATP (CellTiter-Glo 3D, CTG)
# experimental_setup: Dose 0.08 uM; primary screen
Structures can show the parent of a compound that is named as a salt.

Please review the following examples before continuing.
1) CCOC(=O)c1ccc(N2NC(=O)/C(=C/c3ccc([N+](=O)[O-])o3)C2=O)cc1 = 0.609
2) O=C(Nc1ccccc1Br)N[C@@H]1CCN(c2ccc(C(F)(F)F)cn2)C1 = 0.318
3) CC(C)NCC(O)COc1cccc2ccccc12 (centres unmarked) [Propranolol HCl] = 0.158
4) CC(C)N(CCCNC(=O)Nc1ccc(C(C)(C)C)cc1)C[C@H]1O[C@@H](n2cc(Br)c3c(N)ncnc32)[C@H](O)[C@@H]1O = 0.124
5) Cc1[nH]c(/C=C2\C(=O)Nc3ccc(S(=O)(=O)N(C)c4cccc(Cl)c4)cc32)c(C)c1C(=O)N1CCN(C)CC1 = 0.852
6) COc1ccc(C(=O)Nc2sc3c(c2C(N)=O)CCCC3)cc1OC = 0.358
7) O=C1NC(=O)C(c2ccccc2[N+](=O)[O-])=C1Nc1ccc(O)c(Cl)c1 = 0.527

// lookup Z.CTG (standard z score) for C[C@H](NCc1ccc(OCc2cccc(F)c2)cc1)C(N)=O [Safinamide Mesylate]
0.633

====

# Test system: ISC-enriched organoids
# measurement_notes: Primary screen, 384-well 2.5-D organoid differentiation (ENR+CD, 6 days): basal lysozyme secretion (LYZ.NS)
# Format: cell-based, murine
# experimental_setup: Dose 10.00 uM; primary screen, standard z score
Reported Z.LYZ.NS is given for each of the following molecules.

Below, 3 molecules whose answers are already recorded.
1) COc1cc(-n2c(=S)[nH]c3ccccc3c2=O)c(Cl)cc1Cl = −2.333
2) Cc1c(C(=O)Nc2ccc(N3C[C@@H](C)O[C@@H](C)C3)nc2)cccc1-c1ccc(OC(F)(F)F)cc1 = 0.426
3) C[C@@H](Oc1cc(-n2cnc3ccc(CN4CCN(C)CC4)cc32)sc1C(N)=O)c1ccccc1C(F)(F)F = −2.498

Which Z.LYZ.NS is reported for this molecule? "O=C(Nc1ccccc1)c1cc([N+](=O)[O-])ccc1Cl"
0.264

====

# System: ISC-enriched organoids
# measurement_notes: Primary screen, 384-well 2.5-D organoid differentiation (ENR+CD, 6 days): basal lysozyme secretion (LYZ.NS)
# Type: cell-based, murine
# experimental_setup: Dose 0.40 uM; standard z score of FC
endpoint: Z.LYZ.NS
Output spec: single numeric token, no unit.

The following compounds have reported results that may help.
1. CCCCCCCCc1ccc(CCC(N)(CO)CO)cc1.Cl [Fingolimod (FTY720) HCl] = 0.616
2. CS(=O)(=O)N1CCN(Cc2cc3nc(-c4cccc5[nH]ncc45)nc(N4CCOCC4)c3s2)CC1 = −0.112
3. CNC(=O)c1ccc(N2C(=S)N(c3ccc(C#N)c(C(F)(F)F)c3)C(=O)C2(C)C)cc1F [Enzalutamide (MDV3100)] = 1.446
4. CC1C(=O)OC2C(O)C34C5CC(C(C)(C)C)C36C(OC(=O)C6O)OC4(C(=O)O5)C12O (centres unmarked) [Ginkgolide B] = 0.950
5. C#Cc1cccc(Nc2ncnc3cc(OCCOC)c(OCCO)cc23)c1 = −1.948

Could you tell me which Z.LYZ.NS is on file for "O=C(Nc1cccc(Nc2ncc(Br)c(NCCc3cnc[nH]3)n2)c1)N1CCCC1" ?
0.151

Any idea what its Z.LYZ.NS is? The compound is CC(=O)O[C@H]1C[C@@H]2CC[C@@H]3[C@H](CC[C@@]4(C)[C@H]3C[C@H]([N+]3(C)CCCCC3)[C@@H]4OC(C)=O)[C@@]2(C)C[C@@H]1[N+]1(C)CCCCC1.[Br-].[Br-] [Pancuronium dibromide]
0.406

Dear colleague, I am looking for the recorded Z.LYZ.NS of the following compound: C1=N/C2=N/c3ccc(OCCN4CCCC4)c(c3)COC/C=C/COCc3cccc(c3)C(=C1)N2 [Pacritinib (SB1518)]
−0.299

Give its Z.LYZ.NS value. Item: CO[C@H]1C[C@@H]2CC[C@@H](C)[C@@](O)(O2)C(=O)C(=O)N2CCCC[C@H]2C(=O)O[C@H]([C@H](C)C[C@@H]2CC[C@@H](OCCO)[C@H](OC)C2)CC(=O)[C@H](C)/C=C(\C)[C@@H](O)[C@@H](OC)C(=O)[C@H](C)C[C@H](C)/C=C/C=C/C=C/1C [Everolimus (RAD001)]
0.956

Form field: reported Z.LYZ.NS of "C/C(=N\NC(=S)N1CCC1)c1ccccn1"
−0.780

====

Below is a list of entries, each paired with its recorded SSMD.CTG_Rep (strictly standardized mean difference) value.
# System: ISC-enriched organoids
# measurement_notes: Primary screen, 384-well 2.5-D organoid differentiation (ENR+CD, 6 days, Target Selective Inhibitor Library, vs whole-plate median): ATP (CellTiter-Glo 3D, CTG)
# experimental_setup: dose 0.40 uM (2nd of 4 lines per treatment; dose not printed in this part)
Form field (numeric): enter value without unit.

1) CN1CCc2cc3c(cc2[C@H]1[C@@H]1OC(=O)c2c1ccc1c2OCO1)OCO3 [(+)-Bicuculline] = −0.078

Given "COc1cc2c(cc1O)CC[C@@H]1[C@@H]2CC[C@]2(C)[C@@H](O)CC[C@@H]12" , state its recorded SSMD.CTG_Rep (strictly standardized mean difference).
0.930

Give its SSMD.CTG_Rep (strictly standardized mean difference) value. Item: CC(C)N(CC[C@H](c1ccccc1)c1cc(CO)ccc1O)C(C)C [5-hydroxymethyl Tolterodine (PNU 200577, 5-HMT, 5-HM)]
0.291

Need SSMD.CTG_Rep (strictly standardized mean difference), item "O=C(O)c1ccc(N2C(=O)/C(=C\c3ccc(-c4ccc([N+](=O)[O-])cc4)o3)C=C2c2ccccc2)cc1"
0.559

Using the record for C[C@H](Oc1cc(-c2cnn(C3CCNCC3)c2)cnc1N)c1c(Cl)ccc(F)c1Cl [(S)-crizotinib] , report its SSMD.CTG_Rep (strictly standardized mean difference).
0.190

Fill blank: measured SSMD.CTG_Rep (strictly standardized mean difference) of the compound O=C(O)C(Cc1ccccc1[N+](=O)[O-])=NNc1nc(-c2ccc(Cl)c(Cl)c2)cs1 (mixture of isomers) is ____.
−0.158

====

# Test system: ISC-enriched organoids
# measurement_notes: Primary screen, 384-well 2.5-D organoid differentiation (ENR+CD, 6 days): basal lysozyme secretion (LYZ.NS)
# Format: cell-based, murine
# experimental_setup: dose 0.08 uM; vs plate median
endpoint: Dose.FC.LYZ.NS (log 2 fold change, basal lysozyme secretion)
Give only the figure.

Below are worked cases with known answers.
1) CCC(=O)Nc1cccc(Oc2nc(Nc3ccc(N4CCN(C)CC4)cc3OC)ncc2Cl)c1 = 0.074
2) CC(C)C[C@@H](C(=O)N[C@H](C(=O)OC1CCCC1)c1ccccc1)[C@H](O)C(=O)NO = −0.002
3) O=C(O[C@H]1C[C@H]2CC[C@@H](C1)[N+]21CCCC1)C(O)(c1ccccc1)c1ccccc1 [Trospium chloride] = 0.169

Requested read-out: Dose.FC.LYZ.NS (log 2 fold change, basal lysozyme secretion). Entry: "Cc1cc(Nc2cc(N3CCN(C)CC3)nc(Sc3ccc(NC(=O)C4CC4)cc3)n2)n[nH]1"
−0.043

Fill blank: measured Dose.FC.LYZ.NS (log 2 fold change, basal lysozyme secretion) of the molecule "NC(=O)Nc1sc(-c2ccc(F)cc2)cc1C(N)=O" is ____.
0.072

Record request: Dose.FC.LYZ.NS (log 2 fold change, basal lysozyme secretion) value, item "CC(/C=C/C(=O)NO)=C\[C@@H](C)C(=O)c1ccc(N(C)C)cc1"
−0.064
